Assay: antimalarial activity against Dd2 strain (AID 2302)
Details: P. falciparum Dd2 in RBCs, LDH growth readout, 72 h; at 2 µM
Activity calls are given as the source filed them.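 The calls were made as follows: active = growth inhibition above 50% at the single 2 µM test dose, taken to imply half-maximal potency below 2 µM; inactive = the rest.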
In this exercise, the only acceptable responses are active, inactive

// below: answered molecules
- Oc1ccc(Br)cc1C(O)CNCc1ccccc1OCc1ccccc1 (stereo not given): active
- Oc1ccc(CCCNc2nc(NCc3ccccc3-c3ccccc3)nc(N3CCNCC3)n2)cc1: inactive
- COCc1ccc(CN2CCC(C(=O)Nc3ccc(-c4nc5ccccc5[nH]4)cc3)CC2)o1: inactive
- Cc1cc2ncc(C(N)=O)c(Nc3ccc(N4CCOCC4)cc3)c2cc1S(C)(=O)=O: active

# input Tell me the recorded outcome of this test for Cc1cc2cc(-c3ccc(CN)cc3)ccc2nc1N .
# output inactive

# input State the result this test recorded for CCCC(C)c1ccc(N2C(N)=NC(N)=NC2(C)C)cc1 (stereo not given) .
# output inactive

# input Called result for O=C(NCCCCN1CCC(O)(c2ccc(Cl)cc2)CC1)c1ccc(Br)cc1
# output inactive

# input Please let me know the test result on file for Cc1[nH]c(C)c(-c2csc3ccccc23)c(=O)c1Cl .
# output active

# input For CCC(=O)OC(CCN(CC)CC)(c1ccccc1)c1ccccc1 , what call appears in the results of this test?
# output inactive

# input Per the assay record, what outcome was assigned to COCCN(C)CCCOc1cc2c(cc1OC)ncn2-c1cc(OCc2ccccc2C(F)(F)F)c(C(N)=O)s1 ?
# output inactive

# input Assay outcome for CCCCC(=O)Nc1cc(=O)[nH]c2nc(-c3ccc(Cl)cc3)nn12 : what was it?
# output active

# input Which outcome was assigned to COc1cc2nc(N3CCN(C(=O)c4cccc(I)c4)CC3)nc(N)c2cc1OC in this test?
# output inactive

# input Kindly provide the recorded test outcome for the following molecule: COc1cc(OC)nc(-c2cccc(NC(=O)c3ccc4c(=O)n(CCN5CCCCC5)cnc4c3)c2)n1
# output active

# input What is the recorded call for this molecule in the test? Clc1ccc(CNCCCCCCNCc2ccc(Cl)cc2)cc1
# output inactive

# input Which outcome was entered for the molecule COc1cc2ccccc2c(CON2C(N)=NC(N)=NC2(C)C)c1OC in this test?
# output inactive

# input // param item: CN(CCN)Cc1ccc(-c2ccc(-c3nc4ccc(F)cc4[nH]3)s2)cc1 ; yields the recorded call
# output active
